For each record, write down the corresponding Drug uptake.
assay_remarks: Biodistribution in gall bladder of C57BL/6 mouse bearing mouse B16-F0 cells at 0.74 to 0.92 MBq, iv after 3 hrs
Format: ADME, organism-based
assay_setup: in vivo
One number for each entry, in % ID/g.

Some solved entries appear below for comparison.
smiles_entry: CCN(CC)CCNC(=O)c1nc2cc([125I])ccc2[nH]1.Cl.Cl
Drug uptake / % ID/g: 160.6
--
smiles_entry: CCN(CC)CCNC(=O)c1cc2c([125I])cccc2s1.Cl
Drug uptake / % ID/g: 65.56
--
smiles_entry: CCN(CC)CCNC(=O)c1ccc2cncc([125I])c2n1.Cl.Cl
Drug uptake / % ID/g: 41.51

Read the next record carefully.
# input molecule: CCN(CC)CCNC(=O)c1ccc([125I])nc1.Cl.Cl ; wanted: its Drug uptake
6.78
